experiment: Encapsulation of hydrophobic compounds into milk fat globules (loading capacity, encapsulation efficiency); assay type: physicochemical, bovine; conditions: 50 μM added compound, 10% v/v ethanol, 30 min, room temperature
Field: % Encapsulation efficiency. Provide a value for each of the molecules that follow.
The figure you give is taken to be in %; do not add the unit.

Kindly note the recorded % Encapsulation efficiency for C=C1CC[C@H](O)C/C1=C/C=C1\CCC[C@]2(C)[C@@H]([C@H](C)CCCC(C)C)CC[C@@H]12 [Cholecalciferol] , which is 68.60

Please fill in: % Encapsulation efficiency reported for CC(=O)OC/C=C(C)/C=C/C=C(C)/C=C/C1=C(C)CCCC1(C)C [Retinyl acetate] = 107.46

Entry O=c1c(O)c(-c2ccc(O)c(O)c2)oc2cc(O)ccc12 [Fisetin] — recorded % Encapsulation efficiency = 28.64

###

experiment: Encapsulation of hydrophobic compounds into milk fat globules (loading capacity, encapsulation efficiency); type: physicochemical, bovine; conditions: 100 μM added compound, 10% v/v ethanol, 30 min, room temperature
Property name: % Encapsulation efficiency (%)
Give just the numeric value; % need not be written.

Given item CC(=O)OC/C=C(C)/C=C/C=C(C)/C=C/C1=C(C)CCCC1(C)C [Retinyl acetate] , the value recorded as its % Encapsulation efficiency is 100.56

% Encapsulation efficiency recorded for this compound, C=C1CC[C@H](O)C/C1=C/C=C1\CCC[C@]2(C)[C@@H]([C@H](C)CCCC(C)C)CC[C@@H]12 [Cholecalciferol] , is 69.58

# % Encapsulation efficiency of O=c1c(O)c(-c2ccc(O)c(O)c2)oc2cc(O)ccc12 [Fisetin] = 29.16

Per the records, this compound ( O.O=c1c(O)c(-c2ccc(O)c(O)c2)oc2cc(O)cc(O)c12 [Quercetin hydrate] ) has % Encapsulation efficiency equal to 45.35

###

experiment: Encapsulation of hydrophobic compounds into milk fat globules (loading capacity, encapsulation efficiency); type: physicochemical, bovine; settings: 2500 μM added compound, 10% v/v ethanol, 30 min, room temperature
Property name: % Encapsulation efficiency (%)
Note: unit % is implicit; provide only the numeric part.

Data point: C=CCc1ccc(O)c(OC)c1 ; % Encapsulation efficiency = 80.71

Record O.O=c1c(O)c(-c2ccc(O)c(O)c2)oc2cc(O)cc(O)c12 [Quercetin hydrate] , field % Encapsulation efficiency: 13.70

Sure, the documented % Encapsulation efficiency for CC(=O)OC/C=C(C)/C=C/C=C(C)/C=C/C1=C(C)CCCC1(C)C [Retinyl acetate] is 75.45

What the record says about C=C1CC[C@H](O)C/C1=C/C=C1\CCC[C@]2(C)[C@@H]([C@H](C)CCCC(C)C)CC[C@@H]12 : % Encapsulation efficiency is 19.22
